System: BDF1 mice, P388 leukemia ip, median survival T/C
Experiment: NCI In Vivo Anticancer Drug Screen. Data for tumor model P388 Leukemia (intraperitoneal) in B6D2F1 (BDF1) mice
Settings: endpoint: median survival time; dose: 100.0 mg/kg/injection; schedule: Q01DX009 (ip); vehicle: saline with Tween-80; higher = longer survival
Description: The antitumor activity of compounds was measured in mice bearing transplantable tumors. Survival or tumor size were measured and the results are expressed as the measurement made in the treated group (T) divided by the measurement made in the vehicle treated control group (C). The tumor model used in this assay is P388 Leukemia (intraperitoneal) in B6D2F1 (BDF1) mice
Inconclusive results and toxic doses are left out.
parameter: T/C

Solved cases below.
{"compound": "CC1CCCCC12OCCO2 (centres undefined)", "measured_value": "113 % of control"}
{"compound": "CCCCCCCCCCCCCCCC(=O)N(CCC#N)CCC#N", "measured_value": "91 % of control"}
{"compound": "O=[N+]([O-])c1ccc(S(=O)(=O)Oc2ccccc2)cc1", "measured_value": "100 % of control"}
{"compound": "O=C(/C=C/c1ccc(OCc2ccccc2)cc1)c1ccc(F)cc1", "measured_value": "98 % of control"}
{"compound": "O=C1Oc2ccccc2C(=O)/C1=C1\\SSC(c2ccccc2)=C1c1ccccc1", "measured_value": "96 % of control"}

Ask: Suppose we examine the compound CC(C)COC(=O)C(C)Oc1ccc(Oc2ccc(Cl)cc2)cc1 (centres undefined) ; what T/C value has been reported?
Result: 116 % of control

Ask: Quick check: T/C of CC(C)(C1c2ccccc2C(=NO)c2ccccc21)[N+](=O)[O-] (centres undefined) ?
Result: 109 % of control

Ask: Which T/C is listed for `COC(=O)c1ccc(-c2cc(Cl)c3cc(S(=O)(=O)F)ccc3n2)cc1` ?
Result: 90 % of control

Ask: Which T/C is reported for this compound? COc1ccc(C(=O)C(C)C=O)c(OCc2ccccc2)c1OC (centres undefined)
Result: 95 % of control

Ask: For the compound `CCN(CC)c1ccc2c(C)cc(=O)oc2c1` , what T/C is on record?
Result: 92 % of control

Ask: # query: T/C of entry `Cc1ccccc1OCCCCCl`
Result: 115 % of control

Ask: Recorded T/C of COC(=O)C1(C)N=C(Cc2ccccc2)OO1 (centres undefined) , please.
Result: 105 % of control

Ask: May I ask what T/C has been recorded for `C=CCNC(=O)C12CC3CC(CC(C3)C1)C2` ?
Result: 99 % of control

Ask: Bench note: what T/C did COc1ccc(C(O)(CS(C)(=O)=O)c2cccs2)cc1 (centres undefined) show?
Result: 110 % of control

Ask: What value of T/C has been recorded for this entry: `O=S(=O)(CCBr)CCBr`
Result: 104 % of control

Ask: Param item = `CCCOC(=O)c1ccc(OP(=O)(N(C)C)N(C)C)cc1` ; retrieve measured T/C.
Result: 104 % of control

Ask: # input compound: O=CC(OC(=O)c1ccccc1)C(OC(=O)c1ccccc1)C(COC(c1ccccc1)(c1ccccc1)c1ccccc1)OC(=O)c1ccccc1 (centres undefined) ; wanted: its T/C
Result: 120 % of control

Ask: # query: T/C of entry `COc1cc(Br)c(CCC#N)cc1OC`
Result: 110 % of control

Ask: # lookup: T/C of ClC1=C(Cl)C2(Cl)C3(Cl)C(Cl)=C(Cl)C(Cl)(C3c3ccccc3)C2(Cl)C1c1ccccc1 (centres undefined)
Result: 95 % of control
